experiment: cells; settings: Homo sapiens, MCF-10A
Description: Inhibition of methylation of H3K79 in human MCF-10A cells by fluorescence assay
reported-endpoint: IC50 (nM)
# number only, unit nM dropped from output

Query: Please give the measured IC50 for this molecule: CNc1ccnc(Nc2ccc3cc(C)n(-c4ccccc4Oc4cnc5c(c4)ncn5C)c3c2)n1
Result: 16

Query: // lookup IC50 for CC(C)N(CCCNC(=O)Nc1ccc(C(C)(C)C)cc1)C[C@@H]1O[C@H](n2cc(Br)c3c(N)ncnc32)[C@@H](O)[C@H]1O
Result: 8.8

Query: Which measured IC50 value corresponds to CNc1ccnc(Nc2ccc3sc(Cl)c(-c4cc(-c5c(C)ncn(C)c5=O)cnc4Cl)c3c2)n1 ?
Result: 23

----------
Task for the reader: assign each of the following compounds its reported IC50.
molecular target: Histone-lysine N-methyltransferase EZH2 (Homo sapiens); assay: Inhibition of EZH2 (unknown origin)
Sequence (Q15910 whole entry): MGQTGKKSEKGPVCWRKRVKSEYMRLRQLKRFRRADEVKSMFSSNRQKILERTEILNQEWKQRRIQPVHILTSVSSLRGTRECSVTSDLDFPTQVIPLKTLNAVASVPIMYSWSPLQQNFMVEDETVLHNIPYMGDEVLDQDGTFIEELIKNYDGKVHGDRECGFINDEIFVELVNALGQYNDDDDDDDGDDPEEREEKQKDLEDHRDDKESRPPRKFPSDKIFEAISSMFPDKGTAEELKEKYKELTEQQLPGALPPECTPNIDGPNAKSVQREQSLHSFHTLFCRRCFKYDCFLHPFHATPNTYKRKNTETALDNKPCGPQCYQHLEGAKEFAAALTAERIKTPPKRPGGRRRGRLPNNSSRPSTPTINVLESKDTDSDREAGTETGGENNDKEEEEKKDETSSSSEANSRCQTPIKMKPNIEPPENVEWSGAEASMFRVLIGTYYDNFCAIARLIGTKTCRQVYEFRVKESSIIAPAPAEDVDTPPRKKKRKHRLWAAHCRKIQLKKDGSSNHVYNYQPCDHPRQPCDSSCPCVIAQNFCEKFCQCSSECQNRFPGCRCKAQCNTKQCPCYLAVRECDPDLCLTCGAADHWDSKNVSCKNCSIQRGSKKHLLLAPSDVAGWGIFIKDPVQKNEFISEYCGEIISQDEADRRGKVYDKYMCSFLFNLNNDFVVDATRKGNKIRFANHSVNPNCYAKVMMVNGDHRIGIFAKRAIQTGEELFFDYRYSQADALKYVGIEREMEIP

Query: I'd like to know its IC50. The compound in question is COc1cccc(C(=O)NCc2c(C)cc(C)[nH]c2=O)c1Cl
Result: 7.2 nM

Query: Which IC50 is reported for this compound? Nc1ncnc2c1ncn2[C@H]1O[C@@H](CSCC[C@H](N)C(=O)NCc2cc(-c3ccccc3)[nH]n2)[C@H](O)[C@@H]1O
Result: 270 nM

Query: // query IC50 value for entry Cc1cc(C)c(CNC(=O)c2c(C)n([C@H](C)C3CCN(CC(F)(F)F)CC3)c3ccccc23)c(=O)[nH]1
Result: 22 nM

Query: Any idea what its IC50 is? The compound is CSc1cc(C)[nH]c(=O)c1CNC(=O)c1c(C)n([C@@H](C)[C@H]2CC[C@H](N3CC(OC4CC4)C3)CC2)c2ccccc12
Result: 0.057 nM

// provenance: ChEMBL document CHEMBL5136992
